These entries and their values trace back to patent US20120115941A1.

Molecular target: Bakers yeast α-glucosidase
Experiment: Yeast α-glucosidase inhibition assay
Experimental: Bakers yeast α-glucosidase [EC 3.2.1.20], and porcine pancreatic α-amylase [EC 3.2.1.1]were used during bioassay guided fractionation. Rat intestinal acetone powder was used as a source of mammalian α-glucosidase. […] In each bioassay the hydrolysis product was measured using the Victor 2 multi-plate reader (Wallac, Turku, Finland) and all samples were tested in duplicate or triplicate. […] :wherein A and B are the absorbance of the hydrolysis product in the absence and presence of inhibitor, respectively. […]
experimentalEndpoint: pIC50
Scale note: pIC50 = -log10(concentration in M).

Study these solved cases before continuing.
| compound | pIC50 |
| --- | --- |
| COc1cc(-c2cc(=O)c3c(O)cc(O)cc3o2)cc(OC)c1O [Compound 4, Tricin, reference compound] | 4.15 |
| COc1cc(C(OC)C(CO)Oc2c(OC)cc(-c3cc(=O)c4c(O)cc(O)cc4o3)cc2OC)ccc1O (stereo not shown) [Compound 6] | 4.14 |
| O=c1cc(-c2ccc(O)cc2)oc2cc(O)cc(O)c12 [Compound 18, Apigenin, reference compound] | 3.96 |
| O=c1cc(-c2ccc(O)c(O)c2)oc2cc(O)cc(O)c12 [Compound 19, Luteolin, reference compound] | 4.03 |
| COc1cc(C(O)C(COC(=O)C=Cc2ccc(O)cc2)Oc2c(OC)cc(-c3cc(=O)c4c(O)cc(O)cc4o3)cc2OC)ccc1O (stereo not shown) [Compound 7] | 4.43 |
| COc1cc(C(OC)C(CO)Oc2c(OC)cc(-c3cc(=O)c4c(O)cc(O)cc4o3)cc2OC)ccc1O (stereo not shown) [Compound 5] | 4.02 |

Next compound, please.
Prompt: # query: pIC50 | item COc1cc(C(O)C(COC(=O)C=Cc2ccc(O)cc2)Oc2c(OC)cc(-c3cc(=O)c4c(O)cc(O)cc4o3)cc2OC)ccc1O (stereo not shown) [Compound 8] | system: Bakers yeast α-glucosidase
Completion: 4.42

====

target: porcine pancreatic α-amylase (Sus scrofa); assay: Porcine α-amylase inhibition assay (EnzChek Ultra Amylase Assay kit); format: biochemical; conditions: Amylase (porcine) IC50, porcine α-amylase
Sequence (P00690 16-511): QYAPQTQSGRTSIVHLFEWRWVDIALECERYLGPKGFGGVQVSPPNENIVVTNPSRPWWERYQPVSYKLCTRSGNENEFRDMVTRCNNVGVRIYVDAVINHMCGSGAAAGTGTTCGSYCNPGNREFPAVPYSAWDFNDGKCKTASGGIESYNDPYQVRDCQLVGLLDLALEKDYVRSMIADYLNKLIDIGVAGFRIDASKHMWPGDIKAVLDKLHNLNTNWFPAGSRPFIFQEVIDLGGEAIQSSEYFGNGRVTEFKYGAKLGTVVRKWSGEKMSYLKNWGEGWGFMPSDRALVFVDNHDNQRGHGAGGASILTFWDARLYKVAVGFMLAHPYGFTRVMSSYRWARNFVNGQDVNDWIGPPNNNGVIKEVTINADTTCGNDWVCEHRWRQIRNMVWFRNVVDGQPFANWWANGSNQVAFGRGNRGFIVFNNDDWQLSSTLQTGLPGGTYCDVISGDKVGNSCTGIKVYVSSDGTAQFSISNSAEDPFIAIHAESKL
experimentalEndpoint: pIC50
Scale: pIC50 equals -log10([C]), with [C] in mol/L.

Prompt: Find the recorded pIC50 belonging to COc1cc(-c2cc(=O)c3c(O)cc(O)cc3o2)cc(OC)c1O [Compound 4, Tricin, reference compound] and report it.
Completion: 3.98
